Assay: PDE10a perfused brain permeability study: plasma concentrations at 30 and 120 min, brain concentration at 120 min, brain/plasma ratio
Conditions: male, Sprague-Dawley, rat, brain
Structures can show the parent of a compound that is named as a salt.
Measured Attribute: concentration at 2 h (ng/g)

Solved cases (5 shown):
CS(=O)(=O)NC(=O)c1ccc(-c2c(CCc3ccc4ccccc4n3)nc3c(N4CCOCC4)ccnn23)cc1 ... 0
O=C(O)CCc1ccc(-c2c(/C=C/c3ccc4ccccc4n3)nc3c(N4CCOCC4)ccnn23)cn1 ... 0
O=c1[nH]c(-c2ccc(-c3c(/C=C/c4ccc5ccccc5n4)nc4c(N5CCOCC5)ccnn34)cc2)no1 ... 0
COc1cc(-c2c(/C=C/c3ccc4ccccc4n3)nc3c(N4CCOCC4)ccnn23)ccc1C(=O)O ... 16.9
CS(=O)(=O)NC(=O)c1ccc(-c2c(CCc3ccc4ccccc4n3)nc3c(N4CCOCC4)ccnn23)cn1 [Cpd 30, trifluoroacetic acid salt] ... 40.2

I: O=C(O)c1ccc(-c2c([C@H]3C[C@H](c4ccc5ccccc5n4)C3)nc3c(N4CCOCC4)ccnn23)cc1 [compound 164, trifluoroacetic acid salt]
II: Cn1nc(-c2ccc(-c3c(/C=C/c4ccc5ccccc5n4)nc4c(N5CCOCC5)ccnn34)cc2)nc1O
Select one. Lower concentration at 2 h: I or II Response format: the label of the selected entry.
I
(I: 0 ng/g, II: 34.7 ng/g)

A: CS(=O)(=O)NC(=O)c1ccc(-c2c(C#Cc3ccc4ccccc4n3)nc3c(N4CCOCC4)ccnn23)cn1
B: CS(=O)(=O)NC(=O)c1ccc(-c2c(C#Cc3ccc4ccccc4n3)nc3c(N4CCOCC4)ccnn23)cc1
C: C(=C\c1nc2c(N3CCOCC3)ccnn2c1-c1ccc(Sc2nnc[nH]2)nc1)/c1ccc2ccccc2n1
D: O=C(O)c1ccc(-c2c(/C=C/c3ccc4c(n3)CCCC4)nc3c(N4CCOCC4)ccnn23)cc1
E: O=C(O)C1CCN(c2ccc(-c3c([C@H]4C[C@H](c5ccc6ccccc6n5)C4)nc4c(N5CCOCC5)ccnn34)cc2)CC1
Your job: order these 5 records by concentration at 2 h, ascending. Hello, could you send the labels back in the order asked? Thank you.
B, A, D, E, C

---

Biological target: Human recombinant PDE10A2 (Homo sapiens (Human))
Experiment: In vitro hPDE10a: human recombinant PDE10A2 scintillation proximity assay, IC50
Details: human recombinant PDE10A2, SPA, 60 nM cAMP; read-out: hPDE10a2 IC50
pIC50: −log10 of the molar value. Residues, ends and D or L forms follow the SMILES beside them. *: point of attachment. X1 = O=C(c1ccc(-c2c(C#Cc3ccc4ccccc4n3)nc3c(N4CCOCC4)ccnn23)cc1)*
Measured Attribute: pIC50

C[C@H](N)C(=O)N[C@@H](CCCCNC(=O)c1ccc(-c2c(C#Cc3ccc4ccccc4n3)nc3c(N4CCOCC4)ccnn23)cc1)C(N)=O ... 8.30
CC(C)C[C@H](NC(=O)[C@H](C)N)C(=O)N[C@@H](C)C(=O)N[C@@H](CCCCNC(=O)c1ccc(-c2c(C#Cc3ccc4ccccc4n3)nc3c(N4CCOCC4)ccnn23)cc1)C(N)=O [Cpd 178] (H-ALAK(X1)-NH2) ... 7.96

A: Nc1ccc(-c2c(/C=C/c3ccc4ccccc4n3)nc3c(N4CCOCC4)ccnn23)cn1
B: NS(=O)(=O)N1CCN(c2ccc(-c3c(CSc4ccc5ccccc5n4)nc4c(N5CCOCC5)ccnn34)cn2)CC1
Select one. Lower pIC50: A or B Response format: the label of the selected entry.
B

---

Assay: PDE10a perfused brain permeability study: plasma concentrations at 30 and 120 min, brain concentration at 120 min, brain/plasma ratio
Details: male, Sprague-Dawley, rat, plasma
Where a name gives a salt, the structure may show the parent alone.
Measured Attribute: concentration at 2 h (ng/mL)

a: O=C(O)C1CCN(c2ccc(-c3c(/C=C/c4ccc5ccccc5n4)nc4c(N5CCOCC5)ccnn34)cc2)CC1 [Cpd 100, trifluoroacetic acid salt]
b: COc1cc(-c2c(/C=C/c3ccc4ccccc4n3)nc3c(N4CCOCC4)ccnn23)ccc1C(=O)O [compound 67]
c: CC(=O)NS(=O)(=O)c1ccc(-c2c(CCc3ccc4ccccc4n3)nc3c(N4CCOCC4)ccnn23)cc1 [compound 42]
d: CS(=O)(=O)NC(=O)c1ccc(-c2c(/C=C/c3ccc4ccccc4n3)nc3c(N4CCOCC4)ccnn23)cc1 [compound 39]
I'd appreciate it if you could rank the molecules mentioned above by concentration at 2 h, largest value first. Hello, could you send the labels back in the order asked? Thank you.
a, b, d, c

---

Molecular target: Rat recombinant PDE10a (rPDE10a) (Rattus norvegicus (Rat))
Sequence (Q9QYJ6 whole entry): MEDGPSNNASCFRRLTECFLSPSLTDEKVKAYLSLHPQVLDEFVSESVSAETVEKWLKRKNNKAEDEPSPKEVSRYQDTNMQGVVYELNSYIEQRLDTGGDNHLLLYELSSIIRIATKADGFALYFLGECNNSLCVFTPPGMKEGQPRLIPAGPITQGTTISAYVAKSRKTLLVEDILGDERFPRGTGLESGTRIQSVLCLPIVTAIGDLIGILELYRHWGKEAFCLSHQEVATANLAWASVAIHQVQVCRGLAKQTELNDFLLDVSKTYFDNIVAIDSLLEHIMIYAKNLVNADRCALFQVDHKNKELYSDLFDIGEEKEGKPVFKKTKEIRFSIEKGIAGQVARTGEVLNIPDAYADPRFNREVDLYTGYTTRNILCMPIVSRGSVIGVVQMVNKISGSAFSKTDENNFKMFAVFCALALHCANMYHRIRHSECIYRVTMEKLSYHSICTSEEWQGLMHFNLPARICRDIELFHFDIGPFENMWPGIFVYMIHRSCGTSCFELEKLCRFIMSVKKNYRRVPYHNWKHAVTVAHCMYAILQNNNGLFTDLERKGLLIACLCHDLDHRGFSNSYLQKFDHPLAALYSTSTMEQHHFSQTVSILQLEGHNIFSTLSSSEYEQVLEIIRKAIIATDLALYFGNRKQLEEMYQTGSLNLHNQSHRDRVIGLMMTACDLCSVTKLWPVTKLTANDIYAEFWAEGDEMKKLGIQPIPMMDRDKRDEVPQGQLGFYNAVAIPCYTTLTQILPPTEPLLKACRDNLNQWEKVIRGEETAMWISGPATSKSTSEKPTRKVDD
Assay: In vitro assay PDE10a: rat recombinant PDE10a SPA with 3H-cAMP substrate, IC50
Conditions: 60 nM cAMP, read-out: rPDE10a2 IC50
Description: In Vitro Assay PDE10a Rat recombinant PDE10a (rPDE10a) was expressed in Sf9 cells using a recombinant rPDE10a baculovirus construct. Cells were harvested after 48 h of infection and the rPDE10a protein was purified by metal chelate chromatography on Ni-sepharose 6FF. Tested compounds were dissolved and diluted in 100% DMSO to a concentration 100 fold of the final concentration in the assay. […] The reaction was incubated for 60 min at rt. […]
Structures can show the parent of a compound that is named as a salt.
Measured Attribute: IC50 (nM)

Solved cases (3 shown):
CS(=O)(=O)NC(=O)c1ccc(-c2c(/C=C/c3ccc4ccccc4n3)nc3c(N4CCOCC4)ccnn23)cn1 [Cpd 27, trifluoroacetic acid salt] ... 2
O=C(O)c1ccc(-c2c(/C=C/c3ccc4ccccc4n3)nc3c(N4CCOCC4)ccnn23)cn1 ... 5
O=C(Nc1ccc2ccccc2n1)c1nc2c(N3CCOCC3)ccnn2c1-c1ccc(N2CCNCC2)nc1 [Cpd 3, trifluoroacetic acid salt] ... 676

A: COc1cc2ccccc2nc1/C=C/c1nc2c(N3CCOCC3)ccnn2c1-c1ccc(C(=O)O)cc1
B: COc1cc(C(=O)O)ccc1-c1c(/C=C/c2ccc3ccccc3n2)nc2c(N3CCOCC3)ccnn12
Select one. Lower IC50: A or B Response format: the label of the selected entry.
B

I: COc1cccc(-c2c(/C=C/c3ccc4c(C(=O)NS(C)(=O)=O)cccc4n3)nc3c(N4CCOCC4)ccnn23)c1
II: N#Cc1ccc(C#Cc2nc3c(N4CCOCC4)ccnn3c2-c2ccc(C(=O)O)cc2)nc1
Select one. Lower IC50: I or II Response format: the label of the selected entry.
I
(I: 6 nM, II: 31 nM)

---

Molecular target: Human recombinant PDE10A2 (Homo sapiens (Human), UniProt Q9Y233)
Sequence (Q9Y233 267-1055): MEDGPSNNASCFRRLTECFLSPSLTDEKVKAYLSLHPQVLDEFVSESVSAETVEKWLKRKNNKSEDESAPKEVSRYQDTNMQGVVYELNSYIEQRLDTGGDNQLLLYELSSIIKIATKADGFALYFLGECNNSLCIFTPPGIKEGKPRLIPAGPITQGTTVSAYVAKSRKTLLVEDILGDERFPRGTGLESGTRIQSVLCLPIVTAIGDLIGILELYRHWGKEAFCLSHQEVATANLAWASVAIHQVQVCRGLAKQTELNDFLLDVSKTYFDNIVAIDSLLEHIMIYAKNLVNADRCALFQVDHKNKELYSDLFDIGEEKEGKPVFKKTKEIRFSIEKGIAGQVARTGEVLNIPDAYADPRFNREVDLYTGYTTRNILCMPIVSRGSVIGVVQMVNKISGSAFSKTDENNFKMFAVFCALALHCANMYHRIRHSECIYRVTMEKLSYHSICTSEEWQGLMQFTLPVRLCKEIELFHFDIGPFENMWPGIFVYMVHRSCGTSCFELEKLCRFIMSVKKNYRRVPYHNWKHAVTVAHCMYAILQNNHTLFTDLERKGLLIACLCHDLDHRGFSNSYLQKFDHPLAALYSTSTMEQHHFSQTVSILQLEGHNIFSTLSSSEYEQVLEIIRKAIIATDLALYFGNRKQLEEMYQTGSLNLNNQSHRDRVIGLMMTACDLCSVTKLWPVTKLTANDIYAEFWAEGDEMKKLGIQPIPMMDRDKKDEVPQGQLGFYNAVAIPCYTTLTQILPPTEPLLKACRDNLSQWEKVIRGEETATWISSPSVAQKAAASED
Experiment: In vitro hPDE10a: human recombinant PDE10A2 scintillation proximity assay, IC50
Details: human recombinant PDE10A2, SPA, 60 nM cAMP; read-out: hPDE10a2 IC50
Procedure: Cells were harvested and the phosphodiesterase protein was purified by metal chelate chromatography on Ni-sepharose 6FF. The affinity of the compounds of Formula (I) for phophodiesterases (PDE) was measured by a scintillation proximity assay (SPA). PDE Yttrium Silicate SPA beads allow PDE activity to be measured by direct binding of the primary phosphate groups of non-cyclic AMP or GMP to the beads via a complex iron chelation mechanism. […]
pIC50: −log10 of the molar value.
Measured Attribute: pIC50

CCN(CC)c1ccc(-c2c(COc3ccc4ccccc4n3)nc3c(N4CCOCC4)ccnn23)cn1 ... 6.16
O=C(O)c1ccc(-c2c(/C=C/c3ccc4ccccc4n3)nc3c(N4CCOCC4)ccnn23)cn1 ... 8.40

a: O=C(O)CCc1ccc(-c2c(/C=C/c3ccc4ccccc4n3)nc3c(N4CCOCC4)ccnn23)cn1
b: Cn1nc(-c2ccc(-c3c(CCc4ccc5ccccc5n4)nc4c(N5CCOCC5)ccnn34)cc2)[nH]c1=O
Select one. Lower pIC50: a or b Response format: the label of the selected entry.
b
(b: 7.82, a: 8.70)

---

Molecular target: Rat recombinant PDE10a (rPDE10a) (Rattus norvegicus (Rat))
Experiment: In vitro assay PDE10a: rat recombinant PDE10a SPA with 3H-cAMP substrate, IC50
Conditions: 60 nM cAMP, read-out: rPDE10a2 IC50
Experimental: In Vitro Assay PDE10a Rat recombinant PDE10a (rPDE10a) was expressed in Sf9 cells using a recombinant rPDE10a baculovirus construct. Cells were harvested after 48 h of infection and the rPDE10a protein was purified by metal chelate chromatography on Ni-sepharose 6FF. Tested compounds were dissolved and diluted in 100% DMSO to a concentration 100 fold of the final concentration in the assay. […] The reaction was incubated for 60 min at rt. […]
Measured Attribute: IC50 (nM)

Solved cases (6 shown):
O=C(O)c1ccc(-c2c(/C=C/c3ccc4ccccc4n3)nc3c(N4CCOCC4)ccnn23)cc1O ... 3
CS(=O)(=O)Nc1ccc(-c2c(/C=C/c3ccc4ccccc4n3)nc3c(N4CCOCC4)ccnn23)cc1 ... 11
O=C(O)CCC(=O)Nc1ccc(-c2c(/C=C/c3ccc4ccccc4n3)nc3c(N4CCOCC4)ccnn23)cc1 ... 6
CS(=O)(=O)NC(=O)c1ccc(-c2c(/C=C/c3ccc4ccccc4n3)nc3c(N4CCOCC4)ccnn23)cc1F ... 7
O=C(O)c1cc(/C=C/c2cn3nc(Cl)cc(N4CCOCC4)c3n2)nc2ccccc12 ... 1
Cc1ccc(-c2c(COc3ccc4ccccc4n3)nc3c(N4CCOCC4)ccnn23)cn1 ... 46

a: CS(=O)(=O)NC(=O)c1ccc(-c2c(C#Cc3ccc4ccccc4n3)nc3c(N4CCOCC4)ccnn23)cn1
b: COc1ccc(C#Cc2nc3c(N4CCOCC4)ccnn3c2-c2ccc(C(=O)O)cc2)nc1
Select one. Lower IC50: a or b Response format: the label of the selected entry.
a
(a: 1 nM, b: 2 nM)

a: CN1CC=C(c2ccc(-c3c(COc4ccc5ccccc5n4)nc4c(N5CCOCC5)ccnn34)cn2)CC1
b: CC(=O)NS(=O)(=O)c1ccc(-c2c(/C=C/c3ccc4ccccc4n3)nc3c(N4CCOCC4)ccnn23)cc1
c: Oc1nc(O)c(-c2ccc(-c3c(/C=C/c4ccc5ccccc5n4)nc4c(N5CCOCC5)ccnn34)cc2)o1
Ranking field: IC50; order: falling. Hello, could you send the labels back in the order asked? Thank you.
a, c, b
(a: 17 nM, c: 8 nM, b: 2 nM)
